# Tested on: T47D STAT5-luciferase reporter, prolactin-induced, luminescence
# TEST METHOD NOTES: reduction of prolactin-induced STAT5 luciferase – cell-based, luminescence, T47D, assay provider, late-stage follow-up (AID 652026)
# TEST CONDITIONS: at 10 µM; active compounds read low
# if measured fold change < 0.7: true (1)  # else: false (0)

Use the examples below as a reference point.
| COMPOUND | TARGET OR TEST SYSTEM | CLASS NAME |
| --- | --- | --- |
| CN1/C(=C\C(=O)CN2C(=O)c3ccc([N+](=O)[O-])cc3C2=O)C(C)(C)c2ccccc21 | T47D STAT5-luciferase reporter, prolactin-induced, luminescence | false (0) |
| CN1/C(=C\C(=O)CN2C(=O)c3ccccc3S2(=O)=O)C(C)(C)c2ccccc21 | T47D STAT5-luciferase reporter, prolactin-induced, luminescence | false (0) |
| O=C(C[n+]1ccc2ccccc2c1)c1ccccc1 | T47D STAT5-luciferase reporter, prolactin-induced, luminescence | false (0) |
| CN1/C(=C\C(=O)CN2C(=O)C3CC=CCC3C2=O)C(C)(C)c2ccccc21 (stereo not given) | T47D STAT5-luciferase reporter, prolactin-induced, luminescence | true (1) |
| CN1/C(=C\C(=O)C[n+]2cccc(-c3ccccc3)c2)C(C)(C)c2ccccc21 | T47D STAT5-luciferase reporter, prolactin-induced, luminescence | true (1) |
| COc1cccc2cc(C(=O)C[n+]3ccc4ccccc4c3)c(=O)oc12 | T47D STAT5-luciferase reporter, prolactin-induced, luminescence | false (0) |
| CN1/C(=C\C(=O)Cn2cnc3ccc(Cl)cc3c2=O)C(C)(C)c2ccccc21 | T47D STAT5-luciferase reporter, prolactin-induced, luminescence | false (0) |
| O=C(C[n+]1ccc2ccccc2c1)c1cc2ccccc2oc1=O | T47D STAT5-luciferase reporter, prolactin-induced, luminescence | true (1) |
| Cc1cc[n+](CC(=O)/C=C2\N(C)c3ccccc3C2(C)C)cc1 | T47D STAT5-luciferase reporter, prolactin-induced, luminescence | false (0) |
| CCOC(=O)C1CCCN(CC(=O)/C=C2/N(C)c3ccccc3C2(C)C)C1 (stereo not given) | T47D STAT5-luciferase reporter, prolactin-induced, luminescence | false (0) |

Query: Dear reviewer, please state whether `O=C(C[n+]1ccc2ccccc2c1)c1ccc2ccccc2c1` has fold change strictly beneath 0.7.
Response: false (0)

Query: Dear reviewer, please state whether `O=C(C[n+]1ccc2ccccc2c1)Nc1ccccc1` has fold change strictly beneath 0.7.
Response: false (0)

Query: Dear reviewer, please state whether CN1/C(=C\C(=O)CN2C(=O)NC(C)(c3ccc(Cl)cc3)C2=O)C(C)(C)c2ccccc21 (stereo not given) has fold change strictly beneath 0.7.
Response: false (0)

Query: Dear reviewer, please state whether `COc1ccc2oc(=O)c(C(=O)C[n+]3ccc4ccccc4c3)cc2c1` has fold change strictly beneath 0.7.
Response: false (0)
